- assay procedure: Pharmacokinetic assay in SD rats
- Assay type: in vivo
- experimental conditions: both sexes, Sprague-Dawley, rat, PO 60 mg/kg, plasma, read-out: Blood concentration Cmax
- Procedure: SD rats were taken as the test animals, and the compounds of the present invention were administrated to the rats by intravenous injection or gavage. Then the drug concentrations in the plasma at different times were measured using LC/MS/MS method to study the pharmacokinetic characteristics of the compounds of the present invention in rats. Six healthy adult Sprague Dawley (SD) male rats were purchased from Vital River Laboratory Animal Technology Co., Ltd. […]

{"compound": "COc1ccc(COc2c(OC)ccc3c2C[C@@H](C(=O)O)N(c2nc4ccc(F)cc4o2)C3)nc1 [Compound 1m]", "result unit": "µg/mL", "Cmax": 2.4}
{"compound": "COc1ccc(COc2c(OC)ccc3c2C[C@@H](C(=O)[O-])N(c2nc4ccc(F)cc4o2)C3)nc1.[Na+] [Compound 1]", "result unit": "µg/mL", "Cmax": 127}

###

- assay procedure: Solubility test
- Type: physicochemical
- experimental conditions: water
Attribute: solubility
measured metric: solubility (µg/mL)

{"smiles str": "COc1ccc(COc2c(OC)ccc3c2C[C@@H](C(=O)O)N(c2nc4ccc(F)cc4o2)C3)nc1", "value measured": 30}
{"smiles str": "COc1ccc(COc2c(OC)ccc3c2C[C@@H](C(=O)[O-])N(c2nc4ccc(F)cc4o2)C3)nc1.[Na+]", "value measured": 6410}
